Origin of values: ChEMBL document CHEMBL3885861

species on record: Rattus norvegicus; test: Open TG-GATES - Regimen: Daily Repeat; assay type: toxicity, organism-based, Sprague-Dawley; parameters: regimen Daily Repeat, gender Male, age 6 weeks; details: in vivo, po, 100 mg/kg, […], tissue Plasma, route gavage, dose level Low, time 7 day
Entries and their PL
quantity-kind: PL (mg/dL)

# compound, obs-value
records = [
    ("CC(S)C(=O)NCC(=O)O (centres undefined)", 139.4),
    ("O=C(O)c1ccccc1Nc1ccccc1", 160.6),
    ("CC(=O)[C@@]1(O)CC[C@H]2[C@@H]3C=C(Cl)C4=CC(=O)CC[C@]4(C)[C@H]3CC[C@@]21C", 155.2),
    ("CCCCNC(=O)NS(=O)(=O)c1ccc(C)cc1 [TOLBUTAMIDE]", 165.2),
]

---

species on record: Rattus norvegicus; assay: Open TG-GATES - Regimen: Daily Repeat; assay type: toxicity, organism-based, Sprague-Dawley; parameters: regimen Daily Repeat, gender Male, age 6 weeks; conditions: in vivo, po, 1000 mg/kg, […], tissue Plasma, route gavage, dose level High, time 14 day
quantity-kind: LDH (IU/L)

# compound, obs-value
records = [
    ("CC(S)C(=O)NCC(=O)O (centres undefined) [TIOPRONIN]", 182.6),
    ("O=C(O)c1ccccc1Nc1ccccc1 [FENAMIC ACID]", 210),
    ("CC(=O)[C@@]1(O)CC[C@H]2[C@@H]3C=C(Cl)C4=CC(=O)CC[C@]4(C)[C@H]3CC[C@@]21C [CHLORMADINONE]", 160.8),
    ("CCCCNC(=O)NS(=O)(=O)c1ccc(C)cc1 [TOLBUTAMIDE]", 49.4),
]

---

species on record: Rattus norvegicus; assay: Open TG-GATES - Regimen: Daily Repeat; assay type: toxicity, organism-based, Sprague-Dawley; parameters: regimen Daily Repeat, gender Male, age 6 weeks; settings: in vivo, po, 1000 mg/kg, […], tissue Blood, route gavage, dose level High, time 14 day
quantity-kind: Plat (x10_4/uL)

# compound, quantity-kind, obs-value
records = [
    ("CCCCNC(=O)NS(=O)(=O)c1ccc(C)cc1 [TOLBUTAMIDE]", "Plat", 127.9),
    ("O=C(O)c1ccccc1Nc1ccccc1", "Plat", 171.8),
    ("CC(S)C(=O)NCC(=O)O (centres undefined)", "Plat", 124),
    ("CC(=O)[C@@]1(O)CC[C@H]2[C@@H]3C=C(Cl)C4=CC(=O)CC[C@]4(C)[C@H]3CC[C@@]21C", "Plat", 100.3),
]

---

species on record: Rattus norvegicus; assay: Open TG-GATES - Regimen: Daily Repeat; assay type: toxicity, organism-based, Sprague-Dawley; design: regimen Daily Repeat, gender Male, age 6 weeks; settings: in vivo, po, 100 mg/kg, […], tissue Kidney, route gavage, dose level Low, time 14 day

# compound, KIDNEY_TOTAL
rows = [
    ("CC(S)C(=O)NCC(=O)O (centres undefined) [TIOPRONIN]", "2.5 g"),
    ("CC(=O)[C@@]1(O)CC[C@H]2[C@@H]3C=C(Cl)C4=CC(=O)CC[C@]4(C)[C@H]3CC[C@@]21C [CHLORMADINONE]", "2.3 g"),
    ("CCCCNC(=O)NS(=O)(=O)c1ccc(C)cc1 [TOLBUTAMIDE]", "2.4 g"),
    ("O=C(O)c1ccccc1Nc1ccccc1 [FENAMIC ACID]", "2.5 g"),
]
